target: human CD3 (human) (UniProt P07766); test: cell-based or functional assay
Sequence (P07766 23-207): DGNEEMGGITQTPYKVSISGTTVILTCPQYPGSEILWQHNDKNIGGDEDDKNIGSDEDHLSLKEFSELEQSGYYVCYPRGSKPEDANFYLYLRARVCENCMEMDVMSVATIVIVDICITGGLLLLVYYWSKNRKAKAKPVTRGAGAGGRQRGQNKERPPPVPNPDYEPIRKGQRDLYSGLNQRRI
property_name: Apo-One Apoptosis Assay, 25 ng/ml, second block (ratio to Fc null)

{"binder": "anti-CD3 HuFR antibody 9 (heavy chain BD20613, light chain BD21138) (antibody, part only; not given: few VH framework 4 residues, V domains shown, part only) VH, part: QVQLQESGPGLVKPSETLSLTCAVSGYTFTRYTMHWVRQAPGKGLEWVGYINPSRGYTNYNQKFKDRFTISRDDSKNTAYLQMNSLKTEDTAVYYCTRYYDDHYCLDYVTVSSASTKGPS VL: DIQMTQSPSTLSASVGDRVTITCSASSSVSYMNWYQQKPGKAPKLLIYDTSKLASGVPDRFSGSGSGTDFTLKISRVEAEDVGVYYCQQWSSNPFTFGQGTKVEIKFGQGTKVEIKR", "test_value": 1.9}
{"binder": "anti-CD3 HuFR antibody 5 (heavy chain BD20611, light chain BD21134) (antibody, part only; not given: Heavy stretch before framework 4, V domains shown, part only) VH, part: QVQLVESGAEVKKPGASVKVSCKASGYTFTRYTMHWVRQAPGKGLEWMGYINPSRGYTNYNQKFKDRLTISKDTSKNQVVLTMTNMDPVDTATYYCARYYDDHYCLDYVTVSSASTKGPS VL: EIVMTQSPATLSVSPGERATLSCSASSSVSYMNWYQQKPGQPPKLLIYDTSKLASGVPSRFSGSGSGTEFTLTISSLQPDDFATYYCQQWSSNPFTFGQGTKVEIKFGQGTKVEIKR", "test_value": 2.3}
{"binder": "anti-CD3 HuFR antibody 7 (heavy chain BD20611, light chain BD21136) (antibody, part only; not given: Heavy stretch before framework 4, V domains shown, part only) VH, part: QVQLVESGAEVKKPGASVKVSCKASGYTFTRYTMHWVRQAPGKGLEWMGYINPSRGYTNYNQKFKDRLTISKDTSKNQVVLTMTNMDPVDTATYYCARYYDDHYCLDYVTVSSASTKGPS VL: DIQMTQSPSTLSASVGDRVTITCSASSSVSYMNWYQQKPGKAPKLLIYDTSKLASGIPDRFSGSGSGTDFTLTISRLEPEDFAVYYCQQWSSNPFTFGQGTKVEIKFGQGTKVEIKR", "test_value": 4.8}
